Substrate: O=CC(O)COP(=O)(O)O
protocol: coupled alpha-glycerophosphate dehydrogenase assay, A340
Assay type: biochemical, Synechocystis sp. PCC 6803
test conditions: 0.1 M TEA pH 7.4, 10 mM EDTA, 0.2 mM NADH, G3P 0-5 mM, G3P to DHAP
measure name: Km (mM)
Numeric only. Scale: mM

Incoming: Answer with the recorded Km for the protein listed here: SyTPI (Synechocystis sp. PCC 6803 substr. Kazusa; C127A/C176S/C42A) (protein, full length, codon-optimised, E. coli BL21(DE3) delta-tpi; His tag cut by PreScission, extra Gly-Pro-His before Met1; homodimer 54 kDa) MRKIIIAGNWKMHKTQAEAQAFLQGFKPLIEDAAESREVVLAVPFTDLSGMSQQLHGGRVRLGAQNVHWEASGAYTGEISAAMLTEIGIHYVVIGHSERRQYFGETDETANLRVLAAQKAGLIPILAVGESKAQRDAGETEQVIVDQVKKGLVNVDQSNLVIAYEPIWAIGTGDTSAATEANRVIGLIREQLTNSQVTIQYGGSVNANNVDEIMAQPEIDGALVGGASLEPQSFARIVNFQP
Outgoing: 1.40
